# Target or system: T1, human CCR8 (human, UniProt P51685 1-355)
# T1 construct: whole, on cells; also called hCCR8
# T1 sequence (P51685 whole entry): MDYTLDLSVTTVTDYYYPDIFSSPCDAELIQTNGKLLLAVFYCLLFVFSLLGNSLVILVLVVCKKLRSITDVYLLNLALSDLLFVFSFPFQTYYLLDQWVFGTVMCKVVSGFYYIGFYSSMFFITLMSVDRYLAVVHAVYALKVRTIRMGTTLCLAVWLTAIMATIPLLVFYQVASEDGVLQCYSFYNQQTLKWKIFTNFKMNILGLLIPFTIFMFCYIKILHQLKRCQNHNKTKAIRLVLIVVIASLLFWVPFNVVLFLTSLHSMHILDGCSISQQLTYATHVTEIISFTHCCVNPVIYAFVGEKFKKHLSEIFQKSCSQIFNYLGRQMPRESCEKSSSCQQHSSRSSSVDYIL
# Protocol description: FACS on HEK293-human CCR8 cells
Property measured: Max MFI (MFI)
Dear colleague, please return just the value in MFI, with no unit written.

# Binder, Property measured, U, Test result
rows = [
    ("CM149 (antibody, V domains shown, CM149 is not defined in words; also called CM149 HuIgG1; parental antibody CM149) VH: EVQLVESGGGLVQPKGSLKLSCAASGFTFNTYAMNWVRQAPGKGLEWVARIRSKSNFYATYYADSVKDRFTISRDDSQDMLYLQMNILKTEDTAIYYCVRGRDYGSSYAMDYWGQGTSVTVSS VL: DIVMTQAAPSVPVTPGESVSISCRSSKSLLHSNANTYLYWFLQRPGQSPQLLIYRMSNLASGVPDRFSGSGSGTAFTLRISRVEAEDVGVYYCMQHLEYPLTFGAGTKLELK", "Max MFI", "MFI", 7100),
]

With those in mind, consider the next binder.
Form field: reported Max MFI of Hu149-4 (antibody, human IgG1, V domains shown, humanized, human IgG1; also called Hu149-4 HuIgG1) VH: EVQLVESGGGLVQPGGSLKLSCAASGFTFNTYAMNWVRQASGKGLEWVGRIRSKSNFYATYYAASVKGRFTISRDDSKNTAYLQMNSLKTEDTAVYYCTRGRDYGSSYAMDYWGQGTLVTVSS VL: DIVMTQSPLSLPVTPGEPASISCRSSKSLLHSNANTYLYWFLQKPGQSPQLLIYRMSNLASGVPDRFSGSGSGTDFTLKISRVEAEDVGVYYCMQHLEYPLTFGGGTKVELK
7470
